- TEST NAME: Myocardial activity in Wistar-Kyoto rat right atrium exposed to electrical stimulation driven at 2 Hz assessed as muscle contraction at 3 uM relative to untreated control
- Type: functional, Muscle tissue
QUANTITY NAME: Activity

STRUCTURE SMILES: CCN1CCc2cc(OC)c(O)c3c2[C@@H]1Cc1cc(OC)c(OC)cc1-3
QUANTITY NAME: Activity
MEASURED VALUE: 93%

STRUCTURE SMILES: CCCN1CCc2cc(OC)c(O)c3c2[C@H]1Cc1cc(OC)c(OC)cc1-3
QUANTITY NAME: Activity
MEASURED VALUE: 121%

STRUCTURE SMILES: COc1cc2c(cc1OC)-c1c(O)c(OC)cc3c1[C@H](C2)NCC3
QUANTITY NAME: Activity
MEASURED VALUE: 99%

STRUCTURE SMILES: COc1cc2c(cc1OC)-c1c(O)c(OC)cc3c1[C@H](C2)N(C)CC3
QUANTITY NAME: Activity
MEASURED VALUE: 104%

Each compound below has a reported value. Please supply its Activity.
1. COc1cc2c(cc1OC)-c1c(O)c(OC)cc3c1[C@@H](C2)NCC3
2. COc1cc2c(cc1OC)-c1c(O)c(OC)cc3c1[C@@H](C2)N(C)CC3
3. CCCN1CCc2cc(OC)c(O)c3c2[C@@H]1Cc1cc(OC)c(OC)cc1-3

1: 101%; 2: 106%; 3: 103%

====

- TEST NAME: Myocardial activity in Wistar-Kyoto rat right ventricle exposed to electrical stimulation driven at 2 Hz assessed as muscle contraction at 30 uM relative to untreated control
- Format: functional, Muscle tissue
QUANTITY NAME: Activity (%)
Numbers only, in %.

In the examples that follow, each entry is paired with its recorded Activity.
STRUCTURE SMILES: COc1cc2c(cc1OC)-c1c(O)c(OC)cc3c1[C@H](C2)N(C)CC3
Activity, %: 163

STRUCTURE SMILES: COc1cc2c(cc1OC)-c1c(O)c(OC)cc3c1[C@@H](C2)NCC3
Activity, %: 120

STRUCTURE SMILES: COc1cc2c(cc1OC)-c1c(O)c(OC)cc3c1[C@@H](C2)N(C)CC3
Activity, %: 72

STRUCTURE SMILES: COc1cc2c(cc1OC)-c1c(O)c(OC)cc3c1[C@H](C2)NCC3
Activity, %: 90

STRUCTURE SMILES: CCN1CCc2cc(OC)c(O)c3c2[C@@H]1Cc1cc(OC)c(OC)cc1-3
Activity, %: 111

Hey, can you go through the list below and give me Activity for every item?
1. CCCN1CCc2cc(OC)c(O)c3c2[C@H]1Cc1cc(OC)c(OC)cc1-3
2. CCCN1CCc2cc(OC)c(O)c3c2[C@@H]1Cc1cc(OC)c(OC)cc1-3

[96, 75]

====

- System: Heart
- TEST NAME: Myocardial activity in Wistar-Kyoto rat heart assessed as heart rate level at 10 uM relative to untreated control
- Assay type: functional
QUANTITY NAME: Activity
Please answer using the number first and the unit second.

Worked examples, 5 compounds total:
STRUCTURE SMILES: COc1cc2c(cc1OC)-c1c(O)c(OC)cc3c1[C@H](C2)N(C)CC3
SYSTEM NAME: Heart
QUANTITY NAME: Activity
MEASURED VALUE: 86%
--
STRUCTURE SMILES: COc1cc2c(cc1OC)-c1c(O)c(OC)cc3c1[C@H](C2)NCC3
SYSTEM NAME: Heart
QUANTITY NAME: Activity
MEASURED VALUE: 78%
--
STRUCTURE SMILES: CCCN1CCc2cc(OC)c(O)c3c2[C@H]1Cc1cc(OC)c(OC)cc1-3
SYSTEM NAME: Heart
QUANTITY NAME: Activity
MEASURED VALUE: 79%
--
STRUCTURE SMILES: COc1cc2c(cc1OC)-c1c(O)c(OC)cc3c1[C@@H](C2)NCC3
SYSTEM NAME: Heart
QUANTITY NAME: Activity
MEASURED VALUE: 96%
--
STRUCTURE SMILES: COc1cc2c(cc1OC)-c1c(O)c(OC)cc3c1[C@@H](C2)N(C)CC3
SYSTEM NAME: Heart
QUANTITY NAME: Activity
MEASURED VALUE: 85%

Please state, for each entry, its recorded Activity.
1. CCCN1CCc2cc(OC)c(O)c3c2[C@@H]1Cc1cc(OC)c(OC)cc1-3
2. CCN1CCc2cc(OC)c(O)c3c2[C@@H]1Cc1cc(OC)c(OC)cc1-3

["80%", "97%"]
